Just for reference, patent US20250257055A1 is where these values come from.

# assay-summary: Pharmacokinetic study in mice
# Assay type: in vivo
# conditions-used: female, BALB/c (BALB/cAnN CrlCrlj), mouse, plasma, oral, 10 mg/kg
endpoint: Cmax (ng/mL)
# value in ng/mL; strip the unit string

Known Cmax results, listed for orientation:
Just so you know, measured Cmax for O=C1N[C@]2(C[C@@H](F)c3cc(-c4cnn(C5CN(C6COC6)C5)c4)ccc32)C(=O)N1CC(=O)N(Cc1ccc(F)cc1)C1(C(F)(F)F)COC1 [Example 3] came out at 2670

Just so you know, measured Cmax for O=C1N[C@]2(CCc3cc(-c4cnn(C5CN(C6COC6)C5)c4)ccc32)C(=O)N1CC(=O)N(Cc1ccc(F)cc1)C1(C(F)(F)F)CC(F)(F)C1 [Example 5] came out at 3500

For the next question, use this compound.
Just so you know, measured Cmax for O=C1N[C@]2(C[C@@H](F)c3cc(-c4cnn(C5CN(C6COC6)C5)c4)ccc32)C(=O)N1CC(=O)N(Cc1ccc(F)cn1)C1(C(F)(F)F)CC(F)(F)C1 [Example 9] came out at 5370

====

# tested-on: recombinant p300 (Homo sapiens (Human))
# assay-summary: HAT activity inhibition experiment (SensoLyte HAT(p300) Assay Kit)
# conditions-used: recombinant p300, histone H3 peptide, acetyl CoA
endpoint: pIC50
Units for pIC50: none; it is -log10 of a concentration expressed in mol/L.

Just so you know, measured pIC50 for CN1CC(N(Cc2ccc(F)cn2)C(=O)CN2C(=O)N[C@]3(C[C@@H](F)c4cc(-c5cnn(C(C)(C)C#N)c5)ccc43)C2=O)(C(F)(F)F)C1 [Example 26] came out at 8.04

Just so you know, measured pIC50 for O=C1N[C@]2(C[C@@H](F)c3cc(-c4cnn(C5CN(C6COC6)C5)c4)ccc32)C(=O)N1CC(=O)N(Cc1ccc(F)cc1)C1(C(F)(F)F)COC1 [Example 3] came out at 9.22

Just so you know, measured pIC50 for CN1CC(N(Cc2ccc(F)cc2)C(=O)CN2C(=O)N[C@]3(C[C@@H](F)c4cc(-c5cnn(C(C)(C)C#N)c5)ccc43)C2=O)(C(F)(F)F)C1 [Example 11] came out at 8.68

Just so you know, measured pIC50 for CN1CC(N(Cc2ccc(F)cc2)C(=O)CN2C(=O)N[C@]3(C[C@@H](F)c4cc(-c5cnn(C)c5F)ccc43)C2=O)(C(F)(F)F)C1 [Example 15] came out at 8.21

Just so you know, measured pIC50 for O=C1N[C@]2(C[C@@H](F)c3cc(-c4cnn(C5CCN(C6COC6)CC5)c4)ccc32)C(=O)N1CC(=O)N(Cc1ccc(F)cn1)C1(C(F)(F)F)COC1 [Example 23] came out at 8.05

Just so you know, measured pIC50 for O=C1N[C@]2(C[C@@H](F)c3cc(-c4cnn(C5CN(C6COC6)C5)c4)ccc32)C(=O)N1CC(=O)N(Cc1ccc(F)cc1)C1(C(F)(F)F)CC(F)(F)C1 [Example 4] came out at 9.30

====

# assay-summary: Solubility test
# Assay type: physicochemical
# conditions-used: aqueous buffer, thermodynamic from solid; 10 mmol/L glycine buffer (pH 2.0), 5° C., overnight; read-out: Solubility in pH 2.0 buffer
endpoint: solubility (µg/mL)
# value in µg/mL; strip the unit string

Just so you know, measured solubility for CCn1cc(-c2ccc3c(c2)[C@H](F)C[C@]32NC(=O)N(CC(=O)N(Cc3ccc(F)cc3)C3(C(F)(F)F)CN(C)C3)C2=O)cn1 came out at 8800

For the next question, use this compound.
Just so you know, measured solubility for CNC(=O)Cn1cc(-c2ccc3c(c2)[C@H](F)C[C@]32NC(=O)N(CC(=O)N(Cc3ccc(F)cc3)[C@@H](C)C(F)(F)F)C2=O)cn1 [Comparative Example 1, reference compound] came out at 2

====

# tested-on: recombinant p300 (Homo sapiens (Human), UniProt Q09472)
# Sequence (Q09472 whole entry): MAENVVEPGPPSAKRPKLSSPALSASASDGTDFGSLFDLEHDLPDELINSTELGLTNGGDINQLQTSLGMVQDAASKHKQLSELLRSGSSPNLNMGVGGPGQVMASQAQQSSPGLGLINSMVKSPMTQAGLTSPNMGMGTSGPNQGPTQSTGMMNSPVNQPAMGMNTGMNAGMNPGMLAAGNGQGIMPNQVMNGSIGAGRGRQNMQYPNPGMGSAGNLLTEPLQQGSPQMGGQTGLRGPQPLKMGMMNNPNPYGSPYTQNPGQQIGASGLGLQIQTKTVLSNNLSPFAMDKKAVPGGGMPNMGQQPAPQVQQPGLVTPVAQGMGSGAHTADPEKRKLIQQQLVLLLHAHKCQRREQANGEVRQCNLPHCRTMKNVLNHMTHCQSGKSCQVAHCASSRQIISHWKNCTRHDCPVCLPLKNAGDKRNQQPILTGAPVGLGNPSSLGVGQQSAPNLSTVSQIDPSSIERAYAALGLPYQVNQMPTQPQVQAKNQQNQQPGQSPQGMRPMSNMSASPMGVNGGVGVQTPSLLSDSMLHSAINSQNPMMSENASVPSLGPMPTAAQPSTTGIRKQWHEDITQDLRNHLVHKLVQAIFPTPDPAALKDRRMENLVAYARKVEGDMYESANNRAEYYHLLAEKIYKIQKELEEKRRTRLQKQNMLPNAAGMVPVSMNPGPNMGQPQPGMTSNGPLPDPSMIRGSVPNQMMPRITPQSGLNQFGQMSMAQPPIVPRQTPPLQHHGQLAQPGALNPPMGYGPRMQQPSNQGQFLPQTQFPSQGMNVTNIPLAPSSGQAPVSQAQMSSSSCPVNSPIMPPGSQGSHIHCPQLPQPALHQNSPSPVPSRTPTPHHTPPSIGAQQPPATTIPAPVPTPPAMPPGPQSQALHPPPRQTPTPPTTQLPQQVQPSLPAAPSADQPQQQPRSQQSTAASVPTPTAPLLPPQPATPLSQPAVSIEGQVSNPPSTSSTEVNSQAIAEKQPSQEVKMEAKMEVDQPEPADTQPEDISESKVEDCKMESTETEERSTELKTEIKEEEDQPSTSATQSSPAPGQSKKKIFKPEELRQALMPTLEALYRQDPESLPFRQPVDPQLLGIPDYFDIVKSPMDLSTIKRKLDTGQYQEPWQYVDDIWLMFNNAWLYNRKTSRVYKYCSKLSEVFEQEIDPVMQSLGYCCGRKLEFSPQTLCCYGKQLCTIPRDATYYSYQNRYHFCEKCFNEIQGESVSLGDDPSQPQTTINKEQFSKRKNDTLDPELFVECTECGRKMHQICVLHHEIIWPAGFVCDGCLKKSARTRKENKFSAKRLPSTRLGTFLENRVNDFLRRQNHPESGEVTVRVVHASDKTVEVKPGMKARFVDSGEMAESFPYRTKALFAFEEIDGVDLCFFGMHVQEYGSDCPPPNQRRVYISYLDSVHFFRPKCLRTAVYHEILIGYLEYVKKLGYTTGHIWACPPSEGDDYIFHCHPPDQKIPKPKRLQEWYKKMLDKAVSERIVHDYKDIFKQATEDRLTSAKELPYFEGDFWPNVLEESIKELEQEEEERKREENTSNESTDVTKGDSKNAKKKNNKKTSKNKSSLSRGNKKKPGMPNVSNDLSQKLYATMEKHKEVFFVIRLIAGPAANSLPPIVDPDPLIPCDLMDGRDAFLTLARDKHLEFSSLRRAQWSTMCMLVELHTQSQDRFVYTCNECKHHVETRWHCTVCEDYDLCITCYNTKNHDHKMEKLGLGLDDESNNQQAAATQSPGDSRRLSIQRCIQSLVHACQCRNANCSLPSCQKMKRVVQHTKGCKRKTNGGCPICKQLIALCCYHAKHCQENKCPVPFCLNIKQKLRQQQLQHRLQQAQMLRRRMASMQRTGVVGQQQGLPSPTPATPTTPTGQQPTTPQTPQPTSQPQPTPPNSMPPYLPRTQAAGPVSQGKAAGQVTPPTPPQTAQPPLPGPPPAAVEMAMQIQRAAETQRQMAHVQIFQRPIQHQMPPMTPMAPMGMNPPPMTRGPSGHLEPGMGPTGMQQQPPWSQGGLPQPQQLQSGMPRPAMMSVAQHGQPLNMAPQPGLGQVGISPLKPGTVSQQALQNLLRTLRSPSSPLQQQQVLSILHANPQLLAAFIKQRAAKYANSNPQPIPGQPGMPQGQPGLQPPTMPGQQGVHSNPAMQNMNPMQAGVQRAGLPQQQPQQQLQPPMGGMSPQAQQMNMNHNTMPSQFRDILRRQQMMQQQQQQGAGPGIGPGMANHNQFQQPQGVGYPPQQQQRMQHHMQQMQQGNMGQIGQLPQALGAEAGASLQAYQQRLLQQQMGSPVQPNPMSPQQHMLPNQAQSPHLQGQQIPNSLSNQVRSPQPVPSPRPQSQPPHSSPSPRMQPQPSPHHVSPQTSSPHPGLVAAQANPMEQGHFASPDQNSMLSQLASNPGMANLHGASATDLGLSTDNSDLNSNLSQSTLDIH
# assay-summary: HAT activity inhibition experiment (SensoLyte HAT(p300) Assay Kit)
# Type: biochemical
# conditions-used: recombinant p300, histone H3 peptide, acetyl CoA
Recorded log10 of IC50 for the following molecules
Give log10 of IC50, with IC50 taken in nM.

Just so you know, measured log10 of IC50 for CN1CC(N(Cc2ccc(F)cc2)C(=O)CN2C(=O)N[C@]3(CCc4cc(-c5cn(C)nc5F)ccc43)C2=O)(C(F)(F)F)C1 came out at 1.76

Just so you know, measured log10 of IC50 for O=C1N[C@]2(CCc3cc(-c4cnn(C5CN(C6COC6)C5)c4)ccc32)C(=O)N1CC(=O)N(Cc1ccc(F)cc1)C1(C(F)(F)F)COC1 came out at 1.20

Just so you know, measured log10 of IC50 for CN1CC(N(Cc2ccc(F)cn2)C(=O)CN2C(=O)N[C@]3(C[C@@H](F)c4cc(-c5cnn(C6COC6)c5)ccc43)C2=O)(C(F)(F)F)C1 came out at 0.99

Just so you know, measured log10 of IC50 for CN1CCn2ncc(-c3ccc4c(c3)[C@H](F)C[C@]43NC(=O)N(CC(=O)N(Cc4ccc(F)cc4)C4(C(F)(F)F)COC4)C3=O)c2C1 came out at 2.09

Just so you know, measured log10 of IC50 for CN1CC(F)(Cn2cc(-c3ccc4c(c3)CC[C@]43NC(=O)N(CC(=O)N(Cc4ccc(F)cc4)C4(C(F)(F)F)COC4)C3=O)cn2)C1 came out at 1.28

For the next question, use this molecule.
Just so you know, measured log10 of IC50 for CN1CC(N(Cc2ccc(F)cc2)C(=O)CN2C(=O)N[C@]3(CCc4cc(-c5cnn(C)c5F)ccc43)C2=O)(C(F)(F)F)C1 came out at 1.73

====

# assay-summary: Solubility test
# Format: physicochemical
# conditions-used: aqueous buffer, thermodynamic from solid; 10 mmol/L citrate buffer (pH 3.0), 5° C., overnight; read-out: Solubility in pH 3.0 buffer
# Method: The solubility was measured for Examples 7, 10, 20, 23, 24, and 30 to 34, Comparative Example 1, and Comparative Example 2. The test compound was added to 10 mmol/L glycine buffer (pH 2.0) and 10 mmol/L citrate buffer (pH 3.0), and the mixture was stored in a thermostatic chamber at 5° C. After standing overnight, the mixture was filtered through a membrane filter, and the concentration of the filtrate was measured by HPLC.
endpoint: solubility

Just so you know, measured solubility for CC(C)n1cc(-c2ccc3c(c2)[C@H](F)C[C@]32NC(=O)N(CC(=O)N(Cc3ccc(F)cc3)C3(C(F)(F)F)CN(C)C3)C2=O)cn1 [Example 31] came out at 1400 µg/mL

Just so you know, measured solubility for O=C1N[C@]2(C[C@@H](F)c3cc(-c4cnn(C5CN(C6COC6)C5)c4)ccc32)C(=O)N1CC(=O)N(Cc1ccc(F)cn1)C1(C(F)(F)F)COC1 [Example 7] came out at 4600 µg/mL

Next:
Just so you know, measured solubility for CN1CC(N(Cc2ccc(F)cn2)C(=O)CN2C(=O)N[C@]3(C[C@@H](F)c4cc(-c5cnn(C6CCC6)c5)ccc43)C2=O)(C(F)(F)F)C1 [Example 34] came out at 8100 µg/mL

====

# tested-on: recombinant p300 (Homo sapiens (Human))
# assay-summary: HAT activity inhibition experiment (SensoLyte HAT(p300) Assay Kit)
# conditions-used: recombinant p300, histone H3 peptide, acetyl CoA
Decide using IC50 alone. Strictly below 2 nM: yes. Equal to or above 2 nM: no.

Q: Is IC50 strictly under 2 nM for the entry CN1CC(N(Cc2ccc(F)cc2)C(=O)CN2C(=O)N[C@]3(C[C@@H](F)c4cc(-c5cnn(C)c5)ccc43)C2=O)(C(F)(F)F)C1 [Example 10] ?
Result: yes

Q: Is IC50 strictly under 2 nM for the entry CN(C)C1(Cn2cc(-c3ccc4c(c3)[C@H](F)C[C@]43NC(=O)N(CC(=O)N(Cc4ccc(F)cc4)C4(C(F)(F)F)COC4)C3=O)cn2)COC1 [Example 22] ?
Result: no

Q: Is IC50 strictly under 2 nM for the entry CC(C)n1cc(-c2ccc3c(c2)[C@H](F)C[C@]32NC(=O)N(CC(=O)N(Cc3ccc(F)cc3)C3(C(F)(F)F)CN(C)C3)C2=O)cn1 [Example 31] ?
Result: yes

Q: Is IC50 strictly under 2 nM for the entry O=C1N[C@]2(C[C@@H](F)c3cc(-c4cnn(C5CN(C6COC6)C5)c4)ccc32)C(=O)N1CC(=O)N(Cc1ccc(F)cn1)C1(C(F)(F)F)COC1 [Example 7] ?
Result: yes

Q: Is IC50 strictly under 2 nM for the entry CCn1cc(-c2ccc3c(c2)[C@H](F)C[C@]32NC(=O)N(CC(=O)N(Cc3ccc(F)cc3)C3(C(F)(F)F)CN(C)C3)C2=O)cn1 [Example 30] ?
Result: yes

====

Recorded pIC50 for the following compounds
# tested-on: recombinant p300 (Homo sapiens (Human), UniProt Q09472)
# assay-summary: HAT activity inhibition experiment (SensoLyte HAT(p300) Assay Kit)
# conditions-used: recombinant p300, histone H3 peptide, acetyl CoA
Units for pIC50: none; it is -log10 of a concentration expressed in mol/L.

Known pIC50 results, listed for orientation:
Just so you know, measured pIC50 for CC(C)n1cc(-c2ccc3c(c2)[C@H](F)C[C@]32NC(=O)N(CC(=O)N(Cc3ccc(F)cn3)C3(C(F)(F)F)CN(C)C3)C2=O)cn1 came out at 9.70

Just so you know, measured pIC50 for CN1CC(N(Cc2ccc(F)cc2)C(=O)CN2C(=O)N[C@]3(CCc4cc(-c5cnn(C(C)(C)C#N)c5)ccc43)C2=O)(C(F)(F)F)C1 came out at 8.28

For the next question, use this compound.
Just so you know, measured pIC50 for O=C1N[C@]2(CCc3cc(-c4cnn(C5CN(C6COC6)C5)c4)ccc32)C(=O)N1CC(=O)N(Cc1ccc(F)cc1)C1(C(F)(F)F)CC(F)(F)C1 came out at 8.21
